This listing pairs binders with measured koff.
- tested.system: T1, Mouse ST2 (mouse, UniProt P14719 27-332, limits assumed)
- T1 construct: also called mouse ST2 protein
- T1 sequence (looked up): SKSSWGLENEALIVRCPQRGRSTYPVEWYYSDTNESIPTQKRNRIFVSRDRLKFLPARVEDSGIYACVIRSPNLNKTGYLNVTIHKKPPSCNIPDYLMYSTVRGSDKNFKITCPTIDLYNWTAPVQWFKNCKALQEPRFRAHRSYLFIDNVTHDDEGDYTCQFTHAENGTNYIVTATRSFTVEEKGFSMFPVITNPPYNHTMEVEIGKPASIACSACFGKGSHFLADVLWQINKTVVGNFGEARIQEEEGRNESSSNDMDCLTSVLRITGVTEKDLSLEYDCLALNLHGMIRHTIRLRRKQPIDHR
- assay: SPR (Carterra), antibody immobilized, ST2 analyte, 1:1
property: koff (s⁻¹)

binder: Human ST2 IgG1 Antibody 44 (antibody, V domains shown, IgG1, kappa; also called ST2 Antibody 44) VH: EVQLLESGGGLVKPGGSLRLSCAASGFTFSSYWMSWVRQAPGKGLEWVSAISGTAINTYYADSVKGRFTISRDDSKNTLYLQMNSLKTEDTAVYYCARVRRDSSGGGAFDIWGQGTMVTVSS VL: DIQMTQSPSSLSASVGDRVTITCRASQGISNNLNWYQQKPGKAPKLLIYAASSLQTGVPSRFSGSGSGTDFTLTISSLQPEDFATYYCQQSYSTPPTFGQGTKVEIKR
property: koff
result.value: 0.11
//
binder: Human ST2 IgG1 Antibody 35 (antibody, V domains shown, IgG1, kappa; also called ST2 Antibody 35) VH: QVQLVQSGAEVKKPGASVKVSCKASAYTFTSYGISWLRQAPGQGLEWMGWINPNSGNTGYAHKFQGRVTMTRDTSTSTVYMELSSLRSEDTAVYYCARGGSGWPTWGQGTLVTVSS VL: DIQMTQSPSSLSASVGDRVTITCQASQDISNYLNWYQQKPGKAPKLLIYGASSLQSGVPSRFSGSGSGTDFTLTISSLQPEDFATYYCQQANTFPFTFGPGTKVDIKR
property: koff
result.value: 0.018
//
binder: Human ST2 IgG1 Antibody 76 (antibody, V domains shown, IgG1, kappa; also called ST2 Antibody 76) VH: QVQLVQSGAEVKKPGSSVKVSCKASGYTFTDYYMHWVRQAPGQGLEWMGVIIPVLGAAKYAQKFQGRVTITADESTSTAYMELSSLRSEDTAVYYCAKGWGAFDIWGQGTMVTVSS VL: EIVMTQSPATLSVSPGERATLSCRASQSVSSYLAWYQQKPGQAPRLLIYGASTRASGIPARFSGSGSGTEFTLTISSLQSEDFAVYYCQQYYSYPWTFGQGTKVEIKR
property: koff
result.value: 0.14
